Examples of molecules with documented pIC50 follow.
- system: Cytochrome P450 2D6 (Homo sapiens)
- Sequence (P10635 whole entry): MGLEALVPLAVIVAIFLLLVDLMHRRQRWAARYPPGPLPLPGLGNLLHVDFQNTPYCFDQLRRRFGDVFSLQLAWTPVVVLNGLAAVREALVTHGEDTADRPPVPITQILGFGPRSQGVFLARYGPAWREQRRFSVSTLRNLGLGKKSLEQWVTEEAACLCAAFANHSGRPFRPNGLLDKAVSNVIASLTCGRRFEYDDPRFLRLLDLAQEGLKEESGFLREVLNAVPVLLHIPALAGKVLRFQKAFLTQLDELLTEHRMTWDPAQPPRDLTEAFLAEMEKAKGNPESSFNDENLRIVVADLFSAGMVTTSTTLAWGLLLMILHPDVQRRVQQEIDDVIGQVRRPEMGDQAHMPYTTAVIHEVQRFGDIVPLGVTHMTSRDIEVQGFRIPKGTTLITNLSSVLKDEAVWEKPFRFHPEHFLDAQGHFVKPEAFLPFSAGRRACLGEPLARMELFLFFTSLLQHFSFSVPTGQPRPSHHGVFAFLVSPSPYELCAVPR
- assay-remarks: Inhibition of CYP2D6
- Type: ADME
pIC50: −log10 of the molar value.

Below are worked cases with known answers.
>  <smiles-entry>
NC(=O)c1csc(-c2cccc(-c3ccccc3OC(F)(F)F)c2)n1

>  <pIC50>
< 4.30

$$$$
>  <smiles-entry>
FC(F)(F)c1ccccc1-c1cccc(-c2c[nH]cn2)c1

>  <pIC50>
> 7.30

$$$$

# pIC50 of NC(=O)c1nc(-c2cccc(-c3ccccc3OC(F)(F)F)c2)cs1 = 4.32

###

- system: Sodium channel protein type 9 subunit alpha (Homo sapiens, UniProt Q15858)
- assay-remarks: Binding affinity to human Nav1.7
- Sequence (Q15858 whole entry): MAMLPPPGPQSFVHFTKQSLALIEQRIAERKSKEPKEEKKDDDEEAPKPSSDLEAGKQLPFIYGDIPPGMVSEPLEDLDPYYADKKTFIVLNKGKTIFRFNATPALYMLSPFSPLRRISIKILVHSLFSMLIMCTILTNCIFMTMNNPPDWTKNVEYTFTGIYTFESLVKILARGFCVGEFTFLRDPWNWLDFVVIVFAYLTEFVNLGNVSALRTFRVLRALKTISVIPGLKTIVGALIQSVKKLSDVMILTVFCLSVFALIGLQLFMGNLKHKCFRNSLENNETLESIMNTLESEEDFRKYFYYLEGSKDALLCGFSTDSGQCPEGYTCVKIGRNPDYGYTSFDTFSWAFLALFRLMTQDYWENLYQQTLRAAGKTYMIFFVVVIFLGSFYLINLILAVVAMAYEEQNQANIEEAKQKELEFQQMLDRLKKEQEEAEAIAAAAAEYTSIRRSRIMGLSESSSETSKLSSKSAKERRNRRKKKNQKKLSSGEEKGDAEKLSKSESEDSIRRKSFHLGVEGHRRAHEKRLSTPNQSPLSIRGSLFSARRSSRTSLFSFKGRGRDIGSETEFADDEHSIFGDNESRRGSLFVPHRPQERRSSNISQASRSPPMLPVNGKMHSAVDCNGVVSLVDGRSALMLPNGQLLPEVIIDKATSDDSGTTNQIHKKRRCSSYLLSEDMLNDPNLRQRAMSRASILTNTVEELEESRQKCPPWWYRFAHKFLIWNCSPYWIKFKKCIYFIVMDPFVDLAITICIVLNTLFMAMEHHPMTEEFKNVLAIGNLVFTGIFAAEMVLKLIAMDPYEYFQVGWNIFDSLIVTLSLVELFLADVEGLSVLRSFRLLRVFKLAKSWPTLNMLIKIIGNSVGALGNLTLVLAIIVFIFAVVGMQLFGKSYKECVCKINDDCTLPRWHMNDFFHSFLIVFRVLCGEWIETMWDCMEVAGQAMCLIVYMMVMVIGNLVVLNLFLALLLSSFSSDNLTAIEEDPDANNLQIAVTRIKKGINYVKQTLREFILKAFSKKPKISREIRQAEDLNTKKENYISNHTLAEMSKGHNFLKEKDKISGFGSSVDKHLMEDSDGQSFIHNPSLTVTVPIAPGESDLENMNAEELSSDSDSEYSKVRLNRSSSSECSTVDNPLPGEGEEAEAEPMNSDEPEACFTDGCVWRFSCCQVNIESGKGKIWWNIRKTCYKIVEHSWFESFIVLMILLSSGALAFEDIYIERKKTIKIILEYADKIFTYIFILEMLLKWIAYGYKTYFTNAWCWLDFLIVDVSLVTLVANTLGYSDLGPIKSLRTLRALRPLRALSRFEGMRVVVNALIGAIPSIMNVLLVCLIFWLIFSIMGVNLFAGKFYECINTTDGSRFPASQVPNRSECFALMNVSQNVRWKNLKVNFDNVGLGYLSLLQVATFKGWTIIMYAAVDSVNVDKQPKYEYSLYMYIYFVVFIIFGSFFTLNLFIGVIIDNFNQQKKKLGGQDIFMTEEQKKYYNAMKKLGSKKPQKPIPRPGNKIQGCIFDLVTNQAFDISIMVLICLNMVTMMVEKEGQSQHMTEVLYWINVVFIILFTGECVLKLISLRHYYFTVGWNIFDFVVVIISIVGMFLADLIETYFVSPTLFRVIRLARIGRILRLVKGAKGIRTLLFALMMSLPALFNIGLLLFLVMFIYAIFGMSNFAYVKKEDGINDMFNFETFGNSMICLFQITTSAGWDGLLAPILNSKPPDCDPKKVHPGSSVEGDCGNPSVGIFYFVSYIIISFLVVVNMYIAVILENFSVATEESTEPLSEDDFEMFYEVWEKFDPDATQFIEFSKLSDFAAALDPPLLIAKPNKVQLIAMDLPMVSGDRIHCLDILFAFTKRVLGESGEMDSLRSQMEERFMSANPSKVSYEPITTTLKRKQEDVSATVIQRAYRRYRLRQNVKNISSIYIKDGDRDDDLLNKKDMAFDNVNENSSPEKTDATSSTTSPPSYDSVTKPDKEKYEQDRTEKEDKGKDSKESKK
Reported pKi values are given for each entry in this list.
Just so you know, pKi here is -log10 of the concentration in molar units; reply with that number alone.

>  <smiles-entry>
NC(=O)N/N=C/c1ccc(Oc2ccc(F)cc2)cc1

>  <system>
Sodium channel protein type 9 subunit alpha (Homo sapiens, UniProt Q15858)

>  <pKi>
6.44

$$$$

Next up:
Documented pKi of O=C1NC(=O)/C(=C/c2cccc(-c3ccccc3OC(F)(F)F)c2)S1 : 7.70

###

- system: Sodium channel protein type 9 subunit alpha (Homo sapiens, UniProt Q15858)
- assay-remarks: Blockade of human Nav1.7 at 1 uM by voltage ion probe reader based FRET assay
- Sequence (Q15858 whole entry, looked up): as the sequence (Q15858 whole entry) above
measured-property: inhibition (%)
Respond numerically; units are % and should not be typed.

>  <smiles-entry>
N#CCc1nc(-c2cccc(-c3ccccc3OC(F)(F)F)c2)cs1

>  <endpoint-value>
8

$$$$

Moving on to the next compound.
Simply: FC(F)(F)Oc1ccccc1-c1cccc(-c2csc(-c3ccccn3)n2)c1 , Sodium channel protein type 9 subunit alpha (Homo sapiens, UniProt Q15858), inhibition = 21

###

- system: Sodium channel protein type 9 subunit alpha (Homo sapiens)
- assay-remarks: Blockade of human Nav1.7 by voltage ion probe reader based FRET assay
measured-property: pIC50
The read-out pIC50 is expressed as -log10 of concentration in moles per litre.

Some solved cases for reference:
>  <smiles-entry>
OCc1nc(-c2cccc(-c3ccccc3OC(F)(F)F)c2)cs1

>  <pIC50>
5.74

$$$$
>  <smiles-entry>
Cc1sc(C(N)=O)nc1-c1cccc(-c2ccccc2OC(F)(F)F)c1

>  <pIC50>
6.37

$$$$
>  <smiles-entry>
CN(C)C(=O)c1nc(-c2cccc(-c3ccccc3OC(F)(F)F)c2)cs1

>  <pIC50>
5.86

$$$$
>  <smiles-entry>
FC(F)(F)c1ccccc1-c1cccc(-c2c[nH]cn2)c1

>  <pIC50>
5.68

$$$$
>  <smiles-entry>
FC(F)(F)Oc1ccccc1-c1cccc(-c2cocn2)c1

>  <pIC50>
5.71

$$$$

Switching to the query record.
// recorded pIC50 for FC(F)(F)c1ccccc1-c1cccc(-c2cocn2)c1 : 5.27

###

- system: Sodium channel protein type 9 subunit alpha (Homo sapiens, UniProt Q15858)
- assay-remarks: Blockade of human Nav1.7 at 1 uM by voltage ion probe reader based FRET assay
Each entry gets no if its inhibition stays under 10%, and yes if its inhibition is 10% or above.

[Q] Decide: inhibition of CS(=O)(=O)Nc1nc(-c2cccc(-c3ccccc3OC(F)(F)F)c2)cs1 >= 10%?
[A] yes

[Q] State whether the measured inhibition reaches 10%, counting equality as reaching it, for FC(F)(F)Oc1ccccc1-c1cccc(-c2csc(-c3ncccn3)n2)c1
[A] no

[Q] Is reported inhibition greater than or equal to 10% here: CN(C)C(=O)Nc1nc(-c2cccc(-c3ccccc3OC(F)(F)F)c2)cs1
[A] no

###

- system: Sodium channel protein type 9 subunit alpha (Homo sapiens, UniProt Q15858)
- assay-remarks: Blockade of human Nav1.7 at 1 uM by voltage ion probe reader based FRET assay
Listing of recorded inhibition by entry.
Report only the number, with the unit % understood.

Observe how each entry below is paired with its result.
>  <smiles-entry>
FC(F)(F)Oc1ccccc1-c1cccc(-c2csc(-c3ncco3)n2)c1

>  <system>
Sodium channel protein type 9 subunit alpha (Homo sapiens, UniProt Q15858)

>  <measured-property>
inhibition

>  <endpoint-value>
27

$$$$
>  <smiles-entry>
CCOC(=O)c1nc(-c2cccc(-c3ccccc3OC(F)(F)F)c2)c(C)s1

>  <system>
Sodium channel protein type 9 subunit alpha (Homo sapiens, UniProt Q15858)

>  <measured-property>
inhibition

>  <endpoint-value>
8

$$$$
>  <smiles-entry>
NC(=O)c1nc(-c2cccc(-c3ccccc3C(F)(F)F)c2)c[nH]1

>  <system>
Sodium channel protein type 9 subunit alpha (Homo sapiens, UniProt Q15858)

>  <measured-property>
inhibition

>  <endpoint-value>
55

$$$$
>  <smiles-entry>
FC(F)(F)Oc1ccccc1-c1cccc(-c2c[nH]cn2)c1

>  <system>
Sodium channel protein type 9 subunit alpha (Homo sapiens, UniProt Q15858)

>  <measured-property>
inhibition

>  <endpoint-value>
14

$$$$

Entry under test: Cn1cc(-c2cc(-c3ccccc3OC(F)(F)F)ccc2F)nc1C(N)=O . Its inhibition was 15
